Value kind: melting point

The following molecules have reported results that may help.
| Molecule | melting point |
| --- | --- |
| Cn1c(-c2cccs2)cnc1[C@H](Cc1ccccn1)N(C=O)c1cc2cc(Cl)ccc2o1 | 70 to 74 °C |
| CC1(C)C(C(=O)O)C1C(Br)C(Br)(Br)Br (stereo not given) | 150 °C |
| OCC1CN(Cc2ccccc2)CC=C1c1ccc(F)cc1 (single isomer, unassigned; (+)) | 68 to 68.5 °C |
| Cc1cc(=O)oc2nn(Cc3ccc(Cl)cc3)c(C)c12 | 149 to 152 °C |
| COc1cc(CC(=O)NCCCOc2ccc(C)c(C)c2)ccc1OCCN | 103 to 106 °C |
| O=c1ccc(-c2c(-c3ccccc3)nn3ccccc23)nn1-c1ccccc1 | 170 °C |
| CCOC1C=CC(Cl)=CC1(C)S(N)(=O)=O (stereo not given) | 153 to 155 °C |
| CCCOc1ccc(NC(C)=O)cc1C1=NC(=O)C2=NC=NC2=N1 | 320 to 323 °C |
| C=C(C)C(=O)N1CCC[C@H]1C(=O)O | 102 to 104 °C |
| COC(=O)C(=O)Nc1cccc2c1C(=O)N(C1CCC(=O)NC1=O)C2=O (stereo not given) | 247 to 249 °C |

Specify measured melting point for CN1C(=O)C(c2ccc(OC(F)F)cc2)(c2cccc(CCCC(F)(F)F)c2)N=C1N (stereo not given) .
70 °C

Specify measured melting point for "CC(=O)On1cnc2c(Br)csc2c1=O" .
159 to 162 °C

Specify measured melting point for O=C(CCCC(Cl)c1ccc(Cl)cc1)Nc1ccccc1 (stereo not given) .
99 to 102 °C

Specify measured melting point for "O=C(O)c1nc(N2CCCC2)ccc1OCc1ccccc1" .
120 to 122 °C

Specify measured melting point for O=C(OCC1OC(c2ccc(Cl)c(Cc3cc4ccccc4s3)c2)C(OC(=O)c2ccccc2)C(OC(=O)c2ccccc2)C1F)c1ccccc1 (stereo not given) .
204 to 207 °C

Specify measured melting point for "CCCCCS(=O)(=O)NC(=O)c1ccc2sc(C)c(Cc3ccc(Cl)cc3Cl)c2c1" .
158 to 159 °C

Specify measured melting point for OC(Cc1ncc[nH]1)(Cn1cncn1)c1ccc(Cl)cc1Cl (stereo not given) .
168 to 170 °C

Specify measured melting point for "CS(=O)(=O)c1ccc(C(=O)Nc2ccc(-n3nc(C(F)(F)F)cc3C(F)(F)F)cc2)cc1" .
216 to 218 °C

Specify measured melting point for CC(C)c1ccc2c(c1)CCC1C(C)(C(=O)O)CCCC21C (stereo not given) .
168 to 170 °C

Specify measured melting point for "O=C(O)c1cc(-n2c(-c3ccccc3)cc3c4ccccc4ccc32)ccc1O" .
242 °C

----------
# melting point annotations

| Compound | Result |
| --- | --- |
| Cc1oc2ccc(Nc3ncccc3N)cc2c1C | 168 to 170 °C |
| CCc1cc(CCCOc2c(C)cc(-c3noc(C(F)(F)F)n3)cc2C)on1 | 157 to 158 °C |
| CCOC(=O)c1ccc(C(Cc2ccncc2)c2ccc(OC)c(OC3CCCC3)c2)cc1 (stereo unspecified) | 170 to 173 °C |
| COc1ccc(-c2ccc(C(C)=NO)cc2)cc1 | 82 to 84 °C |
| O=C(c1cn(-c2ccccc2)nc1-c1ccc([N+](=O)[O-])o1)N1CCCC1 | 236 to 238 °C |

Specify measured melting point for "Cc1cc(CCCCCOc2c(Cl)cc(-c3nnn[nH]3)cc2Cl)on1" .
122 to 123 °C

Specify measured melting point for "COC(=O)C(=Cc1ccc(OC)c(OC)c1)NC(C)=O" .
198 to 200 °C

Specify measured melting point for COc1cc2c(cc1Cl)C(O)Cc1ccccc1S2 (stereo unspecified) .
130 to 132 °C

Specify measured melting point for "COC(=O)[C@@H]1CCCCN1S(=O)(=O)c1ccc(Cl)c(COc2cccc3c(-n4ccnc4)cc(C)nc23)c1Cl" .
81 °C

Specify measured melting point for "CC(C)N(C[C@H](O)[C@H](Cc1ccccc1)NC(=O)[C@H](CC(N)=O)NCc1ccccn1)NC(=O)OC(C)(C)C" .
101 to 108 °C

Specify measured melting point for O=C1CCCC(c2ccc(F)cc2)CN1 (stereo unspecified) .
158 to 160 °C

Specify measured melting point for "CCCCCCCCCCCCCCCCCC(c1ccc(O)cc1)c1ccc(O)cc1" .
88 to 90 °C

Specify measured melting point for "O=C(c1ccccc1CBr)c1ccc(F)cc1CBr" .
98 to 99 °C

----------
# melting point annotations

| Compound | Result |
| --- | --- |
| CC1(C)NCC(O)(c2ccccc2)CN1 | 108 °C |
| N#CN1CCC(c2nsc3ccccc23)CC1 | 118 to 120 °C |
| CC(C)(NC=O)c1cccc(C(F)(F)C(F)(F)c2ccccc2)c1 | 90 to 95 °C |
| O=Cc1ccc2c(c1)COC2=O | 160 °C |
| FC(F)(F)c1cc(N=NNc2cc(C(F)(F)F)cc(C(F)(F)F)c2)cc(C(F)(F)F)c1 | 137 to 138 °C |

Specify measured melting point for "CC(=O)Nc1cc(C)nn1C" .
45 to 46 °C

Specify measured melting point for "Cc1cc(CC=CCO)c(O)c2c1NC(=O)C2(C)C" .
174 °C

Specify measured melting point for "COc1cc(CCC(=O)CC(=O)c2ccc3ccccc3c2)ccc1O" .
101 to 102 °C

Specify measured melting point for "O=C(Cc1noc2ccccc12)NS(=O)(=O)c1ccc(Cl)cc1" .
209 to 211 °C

Specify measured melting point for COC(=O)C(c1ccc(Cl)cc1)c1c2ccccc2nc2ccccc12 (stereo unspecified) .
192 to 193 °C

Specify measured melting point for N#CCC(=O)NC(C(=O)OC1CCCCC1)c1ccccc1 (stereo unspecified) .
114 to 116 °C

----------
Value kind: melting point

The following compounds have reported results that may help.
| Compound | melting point |
| --- | --- |
| CCCc1nc(C(C)(C)O)c(C(=O)OCOC(=O)OC(C)C)[nH]1 | 144 to 146 °C |
| COCc1cnn2c(-c3cccc(C(F)(F)F)c3)ccnc12 | 114 to 116 °C |
| CC1(CCl)CC(SCc2c(C(F)(F)F)n[nH]c2Cl)=NO1 (stereo not given) | 105 to 107 °C |
| COC(=O)[C@]1(C)CCc2c(C)c(OCc3ccccc3)c(C)c(C)c2O1 | 102 to 106 °C |
| O=C(c1ccc(Cl)cc1)N1CCc2nnc(Cl)cc2C1 | 170 to 172 °C |

Query compound follows.
Specify measured melting point for "Cc1cc(-c2n[nH]c(-c3ccncc3)n2)ccn1" .
245 to 248 °C

----------
# melting point annotations

The following molecules have reported results that may help.
| Molecule | melting point |
| --- | --- |
| Oc1cccc(C(O)(c2nccs2)C(F)(F)F)c1 (stereo unspecified) | 94 to 96 °C |
| CCOC(=O)/C(=C/c1coc2cc(OC)ccc2c1=O)Cc1cc2c(cc1OC)OCO2 | 140 to 141 °C |
| Cn1c(=O)[nH]c2cc3[nH]c(-c4cccnc4)nc3cc21 | > 300 °C |
| COc1ccc(C(=O)O)c2ccc(C(F)(F)F)nc12 | 248 to 249 °C |

Specify measured melting point for "COc1cc(S(=O)(=O)c2ccncc2)ccc1N" .
163 to 165 °C

Specify measured melting point for "CC(c1ccc(O)cc1)(c1ccc(O)cc1)c1ccc(-c2ccccc2)cc1" .
182 to 183 °C

Specify measured melting point for "O=C(Nc1nncs1)C(=O)c1cn(Cc2ccc(F)cc2)c2ccccc12" .
218 to 220 °C

Specify measured melting point for O=C(c1ccccc1)C(O)CCl (stereo unspecified) .
42 to 45 °C

----------
# melting point annotations

The following compounds have reported results that may help.
| Query smiles | melting point |
| --- | --- |
| O=C(NC(CO)(CO)CO)c1cc2ccnc(Cl)c2[nH]1 | 218 to 220 °C |
| O=C(O)c1cc(Oc2ccc(Br)cc2)cc(C(=O)O)c1 | 310 to 320 °C |
| COc1cc2c(cc1[N+](=O)[O-])N(CC(=O)N(C)C)C(=O)CN(CC(=O)N(C)C)C2 | 98 °C |
| Cc1cc(C)c2ncc(NC(=O)c3cc(C)c(O)c(C)c3C)c(-c3ccccc3Cl)c2c1 | 261 to 264 °C |

Specify measured melting point for "CCOC(=O)C(=O)Nc1ccc(NC(=O)C(=O)OCC)cc1" .
214 to 217 °C

----------
# melting point annotations

The following molecules have reported results that may help.
| Molecule | melting point |
| --- | --- |
| CNCc1cccc(COc2nc(Cl)cnc2NS(=O)(=O)c2cccc(Cl)c2Cl)c1 | 167 to 168 °C |
| COc1ccc(-c2cncc(OC3SCC(O)C(O)C3O)c2)cn1 (configuration not stated) | 189 °C |
| CN1CC(C(=O)CN2CCCCC2)CC2c3cccc4[nH]cc(c34)CC21 (configuration not stated) | 168 to 170 °C |
| NC(CF)C(=O)c1ccccc1 (configuration not stated) | 40 to 42 °C |
| CCOC(=O)COc1cc(Cl)c2c(=O)c(-c3ccc(OC)cc3)coc2c1 | 121 to 122 °C |
| CSC1NC(=O)N(c2ccc(C)cc2)C(=O)N1 | 276 to 278 °C |
| CC(C)CCN1C(=O)C(N)C(=O)N(c2ccccc2F)c2ccccc21 (configuration not stated) | 125 to 160 °C |
| Cn1ccnc1Sc1ccc2[nH]nc(N)c2c1 | 174 °C |
| Nc1cc(-n2cccc2)ccc1Nc1cccc(-c2cncnc2)c1 | 190 to 192 °C |
| CCSc1nc2c(C)ccnc2n1Cc1ccc(-n2cc(Cl)cc2-c2nnn[nH]2)cc1 | 88 to 90 °C |

Specify measured melting point for CCC1(CCCCCN2CCN(c3ccccn3)CC2)C(=O)Nc2ccccc21 (configuration not stated) .
127 to 128 °C

Specify measured melting point for "CCOC(=O)CCCCCOc1ccc(-c2nc(=O)c3ccccc3s2)cn1" .
73.6 to 73.9 °C

Specify measured melting point for "O=C(O)CCC/C=C\[C@@H]1C[C@@H](NS(=O)(=O)c2ccc(Cl)cc2)CN1S(=O)(=O)c1ccc(Cl)cc1" .
111 to 113 °C

Specify measured melting point for "O=C(NCc1ccc(Cl)cc1)c1cc2c(O)c(C(=O)NCc3ccc(Cl)cc3)cnc2o1" .
230 to 245 °C

Origin of measurements: a melting point compilation (Tetko et al.; mined from patent text by program, amines drawn as free bases though some values may be those of a salt)
